assay: CCTE_Shafer_MEA_acute_burst_percentage_std: CCTE's Neural Acute Assay for Standard Deviation of Burst Percentage, Shafer Lab (AID 2284018);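 further: fitted in the negative direction so actives lower burst percentage SD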
The source made the active and inactive calls. How the source made its calls: active means hit-call score of the fitted dose curve at least 0.9, where 1 is the maximum; inactive means score below 0.9.
Allowed answers: 1 (yes) = active, 0 (no) = inactive

Use these answered entries as a reference point.
>>> class_name("C=C[Si](OCC)(OCC)OCC")
"0 (no)"
>>> class_name("CC[Si](OC(C)=O)(OC(C)=O)OC(C)=O")
"0 (no)"
>>> class_name("OC1OC[C@@H](O)[C@H](O)[C@H]1O (some centres undefined)")
"1 (yes)"

Exam item: # lookup: test call for COc1cc(C=O)ccc1OC(=O)C(C)C
Marked response: 0 (no)

Exam item: # lookup: test call for CC(C)(COC(=O)c1ccccc1)COC(=O)c1ccccc1
Marked response: 0 (no)

Exam item: # lookup: test call for CC(=O)OCCC(C)CC(C)(C)C (centres undefined)
Marked response: 0 (no)

Exam item: # lookup: test call for Cc1cc(C2(c3cc(C)c(O)cc3C)OS(=O)(=O)c3ccccc32)c(C)cc1O
Marked response: 0 (no)

Exam item: # lookup: test call for C=CCOC(=O)CCC1CCCCC1
Marked response: 0 (no)

Exam item: # lookup: test call for C[C@H]1C[C@@H]2[C@H]([C@@H](O)C[C@@]3(C)[C@H]2CC[C@]3(O)C(=O)CO)[C@@]2(C)C=CC(=O)C=C12
Marked response: 0 (no)

----------
molecular target: human Peroxisome Proliferator-activated Receptor alpha (PPARa), PPARA (gene 5465); assay: ATG_PPARa_TRANS: Attagene TRANS-FACTORIAL HepG2 Assay for human Peroxisome Proliferator-activated Receptor alpha (PPARa) (AID 2283001)
Inconclusive results are not listed. Activity calls are given as the source filed them. How the source made its calls: active means hit-call score of the fitted dose curve at least 0.9, where 1 is the maximum; inconclusive means response in the unintended direction; inactive means score below 0.9.
Allowed answers: active, inactive

>>> class_name("COCCCOc1ccnc(CS(=O)c2nc3ccccc3[nH]2)c1C (stereo unspecified)")
"inactive"
>>> class_name("O=S(=O)(O)c1cccc2c(S(=O)(=O)O)cccc12")
"inactive"
>>> class_name("CCN(CC)c1ccc(C(=C2C=CC(=[N+](CC)CC)C=C2)c2ccc(S(=O)(=O)O)cc2S(=O)(=O)[O-])cc1")
"inactive"

Exam item: # lookup: test call for CC1CCC(C(C)CS)CC1S (stereo unspecified)
Marked response: active

Exam item: # lookup: test call for O=c1[nH]nnc2ccccc12
Marked response: inactive

Exam item: # lookup: test call for CCCCOCCOCCOCCOCCO
Marked response: inactive

----------
biological target: Aryl hydrocarbon receptor (Homo sapiens) (UniProt P35869); assay: ATG_Ahr_CIS: Attagene CIS-FACTORIAL HepG2 Assay for human Aryl Hydrocarbon Receptor (Ahr) (AID 2282930); conditions: HepG2 AhR cis-factorial reporter transcription; actives raise or lower the signal
Sequence (P35869 whole entry, looked up): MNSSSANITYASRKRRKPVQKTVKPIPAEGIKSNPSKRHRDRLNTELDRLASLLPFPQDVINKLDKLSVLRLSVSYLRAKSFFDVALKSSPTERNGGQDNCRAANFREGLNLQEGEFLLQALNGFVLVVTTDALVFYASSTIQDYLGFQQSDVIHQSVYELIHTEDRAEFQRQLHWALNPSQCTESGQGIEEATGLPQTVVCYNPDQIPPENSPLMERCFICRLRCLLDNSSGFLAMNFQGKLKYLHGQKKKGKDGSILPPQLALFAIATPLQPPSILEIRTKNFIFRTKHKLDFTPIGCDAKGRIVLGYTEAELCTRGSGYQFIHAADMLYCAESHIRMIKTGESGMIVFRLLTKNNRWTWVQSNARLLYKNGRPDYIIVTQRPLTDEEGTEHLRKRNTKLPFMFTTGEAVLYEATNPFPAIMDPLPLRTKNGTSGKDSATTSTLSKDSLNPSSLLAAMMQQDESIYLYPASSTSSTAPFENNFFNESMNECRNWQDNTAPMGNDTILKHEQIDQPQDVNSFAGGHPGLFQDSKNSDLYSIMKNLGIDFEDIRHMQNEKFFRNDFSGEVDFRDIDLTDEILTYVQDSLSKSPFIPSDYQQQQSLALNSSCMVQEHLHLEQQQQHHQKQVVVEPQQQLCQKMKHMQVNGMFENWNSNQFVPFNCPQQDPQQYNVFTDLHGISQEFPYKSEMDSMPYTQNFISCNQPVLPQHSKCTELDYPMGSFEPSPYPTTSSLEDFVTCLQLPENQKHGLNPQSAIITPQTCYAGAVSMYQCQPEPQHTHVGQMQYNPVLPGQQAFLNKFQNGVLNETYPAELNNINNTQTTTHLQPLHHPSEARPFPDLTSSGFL
Activity calls are given as the source filed them. How the source made its calls: active means hit-call score of the fitted dose curve at least 0.9, where 1 is the maximum; inactive means score below 0.9.
Allowed answers: class 1 for active, class 0 for inactive

Use these answered entries as a reference point.
>>> class_name("CC(=O)c1c(C)cc(C(C)(C)C)cc1C")
"class 0"
>>> class_name("CC(C)C(C)(C)C(C)(C)C(C)(C)S")
"class 0"
>>> class_name("CSc1nc(NC2CC2)nc(NC(C)(C)C)n1")
"class 0"
>>> class_name("C=C[Si](OCC)(OCC)OCC")
"class 0"
>>> class_name("C=C(C)C1CCC(C)CC1O (configuration not stated)")
"class 0"
>>> class_name("Cc1ccc2n[nH]nc2c1")
"class 1"
>>> class_name("CN(C)C(=N)N=C(N)N")
"class 0"
>>> class_name("Nc1cc(N)cc(C(=O)O)c1")
"class 0"
>>> class_name("C[C@H]1C[C@@H]2[C@H]([C@@H](O)C[C@@]3(C)[C@H]2CC[C@]3(O)C(=O)CO)[C@@]2(C)C=CC(=O)C=C12")
"class 0"
>>> class_name("O=Nc1ccc(Nc2ccccc2)cc1")
"class 1"

Exam item: # lookup: test call for S=C(S)NCCNC(=S)S
Marked response: class 0

Exam item: # lookup: test call for CC(C)C1CCC(O)CC1 (configuration not stated)
Marked response: class 0

Exam item: # lookup: test call for CCCCCOC(=O)CCC
Marked response: class 0

Exam item: # lookup: test call for CC(C)(COC(=O)c1ccccc1)COC(=O)c1ccccc1
Marked response: class 0

Exam item: # lookup: test call for Cc1ccc(Nc2ccc(O)c3c2C(=O)c2ccccc2C3=O)cc1
Marked response: class 0

The measured values listed here are drawn from PubChem BioAssay (EPA / NIEHS).
